PROCEDURE_TEXT: Gastrointestinal toxicity in po dosed rat assessed as ulcerogenic activity after 6 hrs administered in 1% w/v arabic gum
Format: organism-based
RUN_CONDITIONS: in vivo, read-out: UD50
TD50 at 6 h vs 60 mg/kg: less than gives 1; not less than gives -1.

Field: example entries. Status: answers known.
MOLECULE: CCC1Cc2ccc(C(C)C(=O)O)cc2C1 (racemic)
CLASS_NAME: -1
//
MOLECULE: CCC1Cc2ccc(CC(=O)O)cc2C1 (racemic)
CLASS_NAME: -1
//
MOLECULE: CC(C(=O)O)c1ccc2c(c1)CC(C(C)C)C2 (racemic) [ISOPROFEN]
CLASS_NAME: -1
//
MOLECULE: CC(C)Cc1ccc(C(C)C(=O)O)cc1 (stereo not given) [IBUPROFEN]
CLASS_NAME: 1

Now take the following molecule into account.
Query string: Strictly below 60 mg/kg: is that where TD50 at 6 h of CC(C)C1Cc2ccc(CC(=O)O)cc2C1 (racemic) sits?
Result string: -1
